- protocol.details: logP determination by HPLC on reverse-phase column (C 18), EEC directive 79/831 Annex V.A8
- Type: physicochemical
- stated.conditions: reverse-phase HPLC column (C 18), pH 2.3, acidic range, pH 2.3; 0.1% aqueous phosphoric acid/acetonitrile gradient; 43° C.; values marked a)
The label MET is reserved for chromatographic logP strictly under 3; NOT MET covers values equal to or above it.

-- ask Is 3 strictly greater than the molecule's reported chromatographic logP? molecule: O=C1CCC(c2ccc(-c3ccc(Br)cc3)cc2)N1 (centres unmarked)
-- reply MET

====

Exercise: for every item that follows, state its recorded chromatographic logP.
- protocol.details: logP determination by HPLC on reverse-phase column (C 18), EEC directive 79/831 Annex V.A8
- Type: physicochemical
- stated.conditions: reverse-phase HPLC column (C 18), pH 2.3, acidic range, pH 2.3; 0.1% aqueous phosphoric acid/acetonitrile gradient; 43° C.; values marked a)
One number for each entry.

As a guide, the following entries are already answered.
compound: FC(F)(F)Oc1ccc(-c2ccc(C3CCC(c4ccccc4Br)=N3)cc2)cc1 (stereo not shown)
chromatographic logP: 4.52
--
compound: Fc1cccc(F)c1C1=NC(c2ccc(OCc3ccc(C(F)(F)F)cc3)cc2)CC1 (stereo not shown)
chromatographic logP: 3.41
--
compound: Brc1ccccc1C1=NC(c2ccc(CCc3ccccc3)cc2)CC1 (stereo not shown)
chromatographic logP: 3.77
--
compound: CC(C)(C)c1ccc(C2CCC(c3ccccc3Cl)=N2)cc1 (stereo not shown)
chromatographic logP: 3.05

Quick batch: chromatographic logP for everything below.
1. Cc1cc(Cl)ccc1C1CCC(c2ccccc2F)=N1 (stereo not shown)
2. O=C1CCC(c2ccc(OC(F)(F)F)cc2)N1 (stereo not shown)
3. CC(C)(C)OC(=O)N1C(=O)CCC1c1ccc(-c2ccc(SC(F)(F)F)cc2)cc1 (stereo not shown)
4. CC(C)(C)OC(=O)N1C(=O)CCC1c1ccc(C2CCCCC2)cc1 (stereo not shown)
5. CC(C)Oc1ccc(C2CCC(c3c(F)cccc3F)=N2)cc1 (stereo not shown)
6. COc1ccc(C2CCC(c3ccccc3Br)=N2)cc1 (stereo not shown)

-- reply
1. 2.09
2. 2
3. 4.67
4. 4.71
5. 2.14
6. 1.79
